Listing of recorded EC50 by entry.
Target: T1, Cynomolgus SLC34A2 (Cynomolgus, UniProt A0A2K5UHY1 1-690)
T1 construct: whole, on cells; also called Cyno SLC34A2
T1 sequence: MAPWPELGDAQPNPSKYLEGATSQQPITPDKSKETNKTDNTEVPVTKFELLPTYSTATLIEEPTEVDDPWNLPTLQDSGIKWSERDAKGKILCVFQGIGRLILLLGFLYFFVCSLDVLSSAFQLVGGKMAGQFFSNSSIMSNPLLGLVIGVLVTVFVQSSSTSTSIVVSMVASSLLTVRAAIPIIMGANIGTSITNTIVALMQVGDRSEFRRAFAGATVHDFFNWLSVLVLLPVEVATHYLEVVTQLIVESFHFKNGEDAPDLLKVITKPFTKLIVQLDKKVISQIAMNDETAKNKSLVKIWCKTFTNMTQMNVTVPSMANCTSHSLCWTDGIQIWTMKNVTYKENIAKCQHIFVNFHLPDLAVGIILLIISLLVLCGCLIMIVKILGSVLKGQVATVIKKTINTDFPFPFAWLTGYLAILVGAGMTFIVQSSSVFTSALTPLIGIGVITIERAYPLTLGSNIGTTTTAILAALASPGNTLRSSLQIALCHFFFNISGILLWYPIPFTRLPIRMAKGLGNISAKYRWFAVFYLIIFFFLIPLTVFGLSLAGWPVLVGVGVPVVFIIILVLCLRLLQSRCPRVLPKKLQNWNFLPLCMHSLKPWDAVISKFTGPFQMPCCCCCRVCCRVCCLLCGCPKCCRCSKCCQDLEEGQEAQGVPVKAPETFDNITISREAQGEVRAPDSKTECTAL
Assay: FACS, cells expressing Cynomolgus SLC34A2
Write it as a number; the unit nM goes unstated.

Answered examples (2):
INSERT INTO measurements (binder, unit_info, recorded_result) VALUES
  ('xi28G3C6B9 hIgG1 (antibody, V domains shown, chimeric, hIgG1) VH: QVQLQQPGAEVVKPGASVKMSCKASGYTFTSYIIHWVKQAPGQGLEWIGAIYPGNGDTSYSQRFKGKAKLTADKSSSTAYMQLNSLTSEDSVVYYCARGNNYGSPAWFGYWGQGTLVTVSA VL: DIVLTQSPVTLSVTPGDRVSLSCRASQSIGNFLYWYQQKSHESPRLLIKYASQSMSGIPSRFSGSGSGTDFTLSISRVETEDFGMYFCQQSNSWPVTFGAGTKLELK', 'nM', 2.81),
  ('xi69B11D8 hIgG1 (antibody, V domains shown, chimeric, hIgG1) VH: EVQLQQSGPELVKPGAAVKISCKTSGYTFTDYTMHWVRQSHGKSLEWIGGIHPNNGGTGYNQKLRGKATLTVDKSSSTAYMELRSLTSDDSAVYYCARGRESDGWFTYWGQGTLVTFSA VL: DVHMTQTTSSLSASLGDRVTITCSASQGIGNSLNWYQQQPDGTVKLLIYYTSRLHSGVPSRFSGSGSGTDYSLTISNLEPEDLATYYCQQYSRFPPTFGGGTKLEIK', 'nM', 88.3);

Incoming: Look at this binder and give its reported EC50. xi87H12B7 hIgG1 (antibody, V domains shown, chimeric, hIgG1) VH: QVQLQQPGAEVVRPGASVKMSCKASGYTFTSYIVHWVKQPPGQGLEWIGAIYPGNGDTSYIQKFKGRATLTADKSSSTVYMQLSSLTSEDSAVYYCARGHYYGSAAWFGFWGQGTLVTVSA VL: DILLTQSPAILSVSPGERVSFSCRASQNIGTSIHWYQQRTNDSPRLLMRYASESVSGIPSRFSGSGSGTDFTLSINSVESEDIADYYCQQSNTWPLTFGAGTKLELK
Outgoing: 7.66
